From: PubChem BioAssay (NCI)

Hi there, I'd appreciate the recorded growth for every entry that follows.
Test system: SNB-19 CNS
RUN DESCRIPTION: NCI-60 one-dose screen, 48 h (100 = growth as untreated, 0 = no growth, -100 = all killed)
MEASUREMENT CONTEXT: 10 µM
About 83,000 compounds went through this panel and 20% of them were active in at least one assay; those are over-represented in the sample as a whole.
Give your result in % as a bare value.

For "CC(=O)/C(=C/c1ccccc1)C(=O)CC(C)C" on SNB-19 CNS, measured growth was 106

Item "COc1cc(C(=O)N2CCN(c3ccccc3OC)CC2)c(N)cc1OCCCN1CCN(c2ccccc2OC)CC1" ; assay system SNB-19 CNS; growth reported as 104

growth of "COC(=O)[C@@H]1[C@H](O)[C@H](C)[C@H](O)[C@@](C)(O)/C=C\C=C(C)C(=O)Nc2c(C)c(OC(C)=O)c3c(c2O)C(=O)C(C)=C2OCOC(=C23)C(C)=C[C@@](C)(O)[C@H](O)[C@@H](C)[C@H]1OC(C)=O" , assay on SNB-19 CNS, is 112

Measured growth (SNB-19 CNS), entry "Cc1ccc(NC(=O)Nc2cccnc2)cc1NC(=O)Nc1cccnc1" : 94

So the reported growth for COc1ccc(CN2CCC(N3CCCC3=O)c3cc(Cl)ccc32)cc1 (configuration not stated) , on SNB-19 CNS, turned out to be 99.5

The reported growth value, SNB-19 CNS, for "C[N+](C)(C)c1ncnc2nc[nH]c12" reads 94.9

growth value, target or system SNB-19 CNS, for "O=C(N/N=C/c1cc2ccccc2c2ccccc12)c1cc(O)c(O)c(O)c1" : 50.6

Reading of growth for "Clc1nc(Cl)c2c(ncn2C/C=C\Cn2cnc3c(Cl)nc(Cl)nc32)n1" with SNB-19 CNS: -15.6

Reading of growth for "Nc1cc2c(cc1Cl)-c1ccc([N+](=O)[O-])cc1/C2=N\O" with SNB-19 CNS: 93.6

Form field growth for item "O=C1NC(=O)c2ncccc21" on SNB-19 CNS: 107

Result for "CCC(=O)N1C/C(=C/c2ccc(OC)cc2)C(=O)/C(=C/c2ccc(OC)cc2)C1" , tested on SNB-19 CNS, growth: 68.2

Fill in: SNB-19 CNS growth for "COc1cccc(Cn2c(-c3nonc3N)nc3ccccc32)c1" = 53.3

growth on SNB-19 CNS for "COc1ccc(-c2nn(-c3cccc(NC(=O)c4ccc5c(c4)OCCO5)c3)cc2-c2ccncc2)cc1Cl" is 70.8

// returns growth for "Cc1cc(Cc2cc(C)c(O)c(C)c2)cc(C)c1O" with SNB-19 CNS; value = 66.6

Field growth (system: SNB-19 CNS) for entry CN(C)CC(O)c1ccc2cc(Br)c3ccccc3c2c1 (configuration not stated) = 64.7

# growth measured on SNB-19 CNS for item "CC(=O)c1cc(Br)ccc1O" = 109

// returns growth for "CC/C(=C(/c1ccc(OCCN(C)C)cc1)c1ccc(OC(=O)CCCCC(=O)c2c(C)[nH]c(/C=C3\N=C(c4ccc[nH]4)C=C3OC)c2C)cc1)c1ccccc1" with SNB-19 CNS; value = 91.8

Lab note: molecule "Nc1c(C(=O)Nc2cccc(F)c2)sc2nc3c(cc12)C(=O)CCC3" tested on SNB-19 CNS; recorded growth was 48.9

Observed growth on SNB-19 CNS, entry "Cc1cccc2c(NCCN(C)C)c3cccc(C(=O)NCCN(C)C)c3nc12" , equals 14.5

The molecule "COc1ccc(N=C2C(=Nc3ccc(OC)cc3)N(c3ccc(N(C)C)cc3)C(=S)N2c2ccc(OC)cc2)cc1" on SNB-19 CNS: growth was 75.1

Summary line: "CN1c2ccccc2[C@]2(Cc3ccccc3)Cc3ccccc3N[C@H]12" , SNB-19 CNS, reported growth = 104

Field growth (SNB-19 CNS), entry "CC/C(C)=C(\C)C(=O)O" : 112

Tested on SNB-19 CNS: "CC[C@H]1CCC/C=C/[C@@H]2C[C@H](O)C[C@H]2[C@H](O)/C=C/C(=O)O1" . Observed growth: 29.7

The value of growth recorded for "Cc1cccc(C)c1NC(=O)c1sc2nc3c(cc2c1N)C(=O)CCC3" when tested on SNB-19 CNS reads 66.5

Result for Nc1c(C(=O)Nc2ccccc2)sc2nc3c(cc12)C(O)CCC3 (configuration not stated) , tested on SNB-19 CNS, growth: 58.6

Field growth (SNB-19 CNS), entry "O=[N+]([O-])c1cccc(-c2ncc(-c3ccc(Cl)cc3Cl)[nH]2)c1" : 96.7

Entry "COc1cc(/C=C\c2cc(OC)c(OC)c(OC)c2)cc(NS(=O)(=O)c2ccc(Cl)cc2)c1OC" , tested on SNB-19 CNS, has a reported growth of 58.4

For the molecule "CCC(=O)N1C/C(=C/c2ccc(Cl)cc2)C(=O)/C(=C/c2ccc(Cl)cc2)C1" , the measured growth on SNB-19 CNS was -19.3

Field growth (SNB-19 CNS), entry "Cn1c(N)c(N=Nc2ccc(S(=O)(=O)Nc3nccs3)cc2)c(=O)n(C)c1=O" : 104

Record "C/C(N)=C(\C#N)C(=O)c1ccccc1" has SNB-19 CNS growth equal to 107

Record "O=C(Nc1cccc(-n2cc(-c3ccncc3)c(-c3ccc(O)c(Cl)c3)n2)c1)Nc1ccc(Cl)c(Cl)c1" / SNB-19 CNS, growth recorded as 38.2

Record for "O=C1c2ccc3c4c(ccc(c24)C(=O)N1CCNCc1ccccc1)C(=O)N(CCNCc1ccccc1)C3=O" under target or system SNB-19 CNS: growth reported as 8.03

Known value: SNB-19 CNS growth of the molecule "COc1cc(-c2cc(/C=C3\C(=O)Nc4ccccc43)[nH]n2)cc(OC)c1OC" equals 65.8

Item "Cc1cc2c(C)c3cc(C)c(N)cc3nc2cc1N" was tested on SNB-19 CNS; the reported growth is 18.3

So the reported growth for "Cn1c([N+](=O)[O-])cnc1/C=C1\Oc2ccccc2C1=O" , on SNB-19 CNS, turned out to be -17.3

The reported growth value, SNB-19 CNS, for "COc1ccc(OC)c(/C=C/c2nc(SCc3ccccc3)n(-c3ccc(Cl)cc3)n2)c1" reads 61.4

Per the reported SNB-19 CNS data, "N#CCCN(NC(=O)OCc1ccccc1)C(=O)OCc1ccccc1" has growth of 108

Measured on SNB-19 CNS, "COc1cc(Nc2ccnc(NCCCNc3ccnc4cc(Cl)ccc34)n2)cc(OC)c1" has a documented growth of 2.03

The molecule "Fc1ccc2nc(-c3nc(-c4ccccc4)n4ccccc34)[nH]c2c1" , when measured on SNB-19 CNS, yielded growth of -36.5

Tested system SNB-19 CNS; growth recorded for "CCN(CC)CCN1CC(=O)Nc2cc(Cl)ccc21" was 104

Item: "Clc1ccccc1N=Cc1ccc2c(c1)OCO2" | System: SNB-19 CNS | growth: 105

Kindly note: SNB-19 CNS, "CN(C)CCOc1nc2ccccc2c2c1-c1ccc(Cl)cc1C2=O" , growth value reported: 14.9

###

System: MDA-MB-231 breast
RUN DESCRIPTION: NCI-60 one-dose screen, 48 h (100 = growth as untreated, 0 = no growth, -100 = all killed)
MEASUREMENT CONTEXT: 10 µM
About 83,000 compounds went through this panel and 20% of them were active in at least one assay; those are over-represented in the sample as a whole.
READOUT KIND: growth (%)
Only the number, expressed in %, is required.

Measured growth of "CC(=O)OCc1cc(-c2nc3ccccc3[nH]c2=O)nn1-c1ccc(Cl)cc1" : 98.1

response.value for "O=C(O)CCCCSc1ncnc2nc[nH]c12" (field: growth) = 113

Lab note: measured growth of "c1ccc(CSc2nnc3c4c5c(sc4nc(-c4cccnc4)n23)CCCCCC5)cc1" was 71.4

Documented growth of "COc1ccc(-c2nn(-c3cccc(NC(=O)c4cccc(C(F)(F)F)c4)c3)cc2-c2ccncc2)cc1Cl" : 9.03

Summary for this compound, "COc1cc(/C(=C2/O[C@@H]([C@H]3COC(C)(C)O3)[C@H]3OC(C)(C)O[C@@H]23)c2ccc3ccccc3c2)cc(OC)c1OC" : growth is 13.6

###

Test system: OVCAR-8 ovarian
RUN DESCRIPTION: NCI-60 one-dose screen, 48 h (100 = growth as untreated, 0 = no growth, -100 = all killed)
MEASUREMENT CONTEXT: 10 µM
This is part of a sample that, as a whole, favours compounds with a hit. Of some 83,000 tested, about 20% had one in any assay.
Friendly reminder: growth below 40% is met, at or above is not met.

Incoming: Just wondering, is growth of "COc1ccc(-c2nc3ncccn3c2-c2nnc(-c3ccsc3C)o2)cc1" below 40%?
Outgoing: met

Incoming: # TODO verify growth < 40% strictly for this molecule: "CCN(CC)CCSCCN(CC)CC"
Outgoing: not met

Incoming: growth strictly < 40% for this molecule? CCOC(=O)C1CCc2c(ccc3ccccc23)N1CCC#N (stereo not given)
Outgoing: not met

Incoming: Lab note: growth threshold 40%. Does this molecule come in strictly under it? "O=C(Cc1csc2nc(-c3ccc(Cl)cc3)cn12)N/N=C/c1ccccc1O"
Outgoing: not met

Incoming: A record lists "COc1cc(Cl)cc(-c2nn(-c3cccc(NC(=O)c4ccc(Cl)c(Cl)c4)c3)cc2-c2ccncc2)c1" . Is its growth below 40%?
Outgoing: not met

Incoming: Bench note: check whether "Cc1cc(N(CCCNc2ccnc3cc(Cl)ccc23)Cc2ccc3c(c2)OCO3)nc(N2CCCCC2)n1" shows growth below 40%
Outgoing: met

Incoming: For CCOC(=O)C(CSC(c1ccccc1)(c1ccccc1)c1ccccc1)NC(=O)C(CSC(c1ccccc1)(c1ccccc1)c1ccccc1)NC(c1ccccc1)(c1ccccc1)c1ccccc1 (stereo not given) , is the recorded growth below the cut-off of 40%?
Outgoing: not met

Incoming: Determine whether this molecule shows growth lower than 40% (ties excluded): "Cc1ccc(S(=O)(=O)Oc2ccc3c4c(c(=O)oc3c2)CCCCC4)cc1"
Outgoing: not met

Incoming: Input "COc1ccc2c(c1)O/C(=C\c1ccc([N+](=O)[O-])s1)C2=O" ; condition: growth strictly below 40%. Does it hold?
Outgoing: met

Incoming: Determine if "Cc1ccc(NC(=O)Nc2c(Cl)cccc2Cl)cn1" shows growth strictly lower than 40%.
Outgoing: not met
